Quick reference: melting point of the listed items.

>  <compound>
CC1CCN=C2N1c1ccc(Br)cc1C21OCCCO1 (stereo not drawn)

>  <observed.measurement>
69 to 72 °C

$$$$
>  <compound>
Clc1cccc(Nc2ncnc3[nH]nc(NCc4ccccc4)c23)c1

>  <observed.measurement>
214 to 217 °C

$$$$
>  <compound>
Cc1nc2c(F)c(F)cc(F)c2s1

>  <observed.measurement>
91 to 92 °C

$$$$
>  <compound>
O=C1NC(=O)C(Cc2ccc(OCCc3c[nH]c4ccccc34)cc2)S1 (stereo not drawn)

>  <observed.measurement>
42.6 to 44.5 °C

$$$$

query: Would you kindly share the measured melting point for CCOC(=O)C1=C(COCc2nc(C)cs2)NC(C)=C(C(=O)OC)C1c1ccccc1Cl (stereo not drawn) ?
result: 107 to 110 °C

query: Would you kindly share the measured melting point for CC(=O)Nc1nc(/C=C\c2ccc([N+](=O)[O-])cc2)cs1 ?
result: 155 to 157 °C

query: Would you kindly share the measured melting point for O=C1COc2cc(NC(=O)C(=O)O)ccc2N1 ?
result: 232 to 236 °C

query: Would you kindly share the measured melting point for COc1ccccc1-c1ccc(C[C@H](NC(=O)C(C)c2c(Cl)cccc2Cl)C(=O)O)cc1 (stereo partly drawn) ?
result: 109 to 110 °C

query: Would you kindly share the measured melting point for O=[N+]([O-])c1cc(-c2nc(-c3ccco3)no2)ccc1Cl ?
result: 136 to 138 °C

query: Would you kindly share the measured melting point for O=C1CCC(N2C(=O)c3cccc(CNC(=O)c4cc(Cl)cnc4Cl)c3C2=O)C(=O)N1 (stereo not drawn) ?
result: > 260 °C

query: Would you kindly share the measured melting point for C/C(=C\Cn1oc(=O)[nH]c1=O)c1cccc(OCc2nc(-c3ccc(OC(F)(F)F)cc3)oc2C)c1 ?
result: 145 to 146 °C

query: Would you kindly share the measured melting point for O=C(O)CC(CCCc1ccc(O)cc1)CC(=O)O ?
result: 107 to 108 °C

query: Would you kindly share the measured melting point for CCOC(=O)c1cnc2c(c1Cl)CN(C(=O)OCC)CC2 ?
result: 231 to 233 °C

query: Would you kindly share the measured melting point for Cc1cc(NS(=O)(=O)c2ccc(F)cc2)cc(C)c1S(=O)(=O)C[N+](=O)[O-] ?
result: 152 to 154 °C

query: Would you kindly share the measured melting point for CCCCCCc1ccc(CCCCC(N)(CO)CO)cc1 ?
result: 99 to 102 °C

query: Would you kindly share the measured melting point for CCCCn1c(=O)c2[nH]ncc2n(CCC(C)C)c1=O ?
result: 77 to 79 °C

query: Would you kindly share the measured melting point for CC(C)(C)OC(=O)NC(C)(C)c1ccc(-c2ccno2)cc1 ?
result: 145 to 146 °C

query: Would you kindly share the measured melting point for N=C(N)Nc1nc2cc(Cl)cc(Cl)c2[nH]1 ?
result: 264 to 265 °C

query: Would you kindly share the measured melting point for Cc1onc(O)c1-c1ccccc1[N+](=O)[O-] ?
result: 197 °C

query: Would you kindly share the measured melting point for CC(C)=CC(C#N)NC(=O)c1cn(C)nc1C (stereo not drawn) ?
result: 110 to 112 °C

query: Would you kindly share the measured melting point for Nc1nc2ccccc2c2c1nc(-c1ccccc1)n2OCc1ccccc1 ?
result: 177 to 179 °C

query: Would you kindly share the measured melting point for CC(C)(C=O)S(=O)(=O)c1ccccc1 ?
result: 103 to 104 °C

query: Would you kindly share the measured melting point for COC(=O)C(=Cc1ccc(-c2cccc(N(C)C(=O)Nc3ccccc3)c2)cc1)OC ?
result: 186 °C

query: Would you kindly share the measured melting point for O=C1CCC(c2ccc(N3CC(CO)OC3=O)cc2)CC1 (racemic) ?
result: 152 °C

query: Would you kindly share the measured melting point for Cc1oc(-c2ccccc2)nc1COc1ccc(OCc2ncccc2CC#N)cc1 ?
result: 134 to 135 °C

query: Would you kindly share the measured melting point for COC(=O)c1cccc2[nH]c3ccccc3c12 ?
result: 84.3 °C

query: Would you kindly share the measured melting point for CCCCOc1ccc(CC(CC(=O)NO)S(=O)(=O)c2ccc(OC)cc2)cc1 (stereo not drawn) ?
result: 55 to 60 °C

query: Would you kindly share the measured melting point for Fc1ccc(-c2[nH]nc(C3=C[C@@H]4C[C@@H](c5ccccc5)CN4CC3)c2-c2ccncc2)cc1Cl ?
result: 179 to 180 °C
